Assay: Selectivity ratio between Ki of alpha-2 adrenoceptor and Ki of PNMT
Given measured Ratio, output 1 if it is greater than or equal to 0.2 and 0 if not.

Use the examples below as a reference point.
molecule=C[C@H]1Cc2ccccc2CN1 category=1
molecule=c1ccc2c(c1)CCCNC2 category=1
molecule=c1ccc2c(c1)CNCCN2 category=0
molecule=c1ccc2c(c1)CNCCO2 category=0
molecule="CC1Cc2ccccc2CN1 (racemic)" category=1

Prompt: I'd appreciate it if you could say whether NCc1ccccc1 has Ratio at least equal to 0.2.
Completion: 0

* * *

Target: Phenylethanolamine N-methyltransferase (Bos taurus)
Sequence (P10938 whole entry): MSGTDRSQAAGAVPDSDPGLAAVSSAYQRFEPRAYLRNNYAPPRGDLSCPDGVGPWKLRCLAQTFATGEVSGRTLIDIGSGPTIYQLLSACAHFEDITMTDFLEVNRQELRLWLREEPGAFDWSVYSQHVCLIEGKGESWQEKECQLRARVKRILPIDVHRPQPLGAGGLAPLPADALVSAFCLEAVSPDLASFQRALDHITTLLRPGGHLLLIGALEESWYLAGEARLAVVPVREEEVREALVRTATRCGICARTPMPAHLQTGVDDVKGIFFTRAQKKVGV
Entries annotated with measured Ki
Write it as a number; the unit µM goes unstated.

# count of solved cases: 3
compound=C[C@H]1Cc2ccccc2CN1 unit_label=µM readout_value=1.01
compound=c1ccc2c(c1)CNCCN2 unit_label=µM readout_value=28
compound=C[C@@H]1Cc2ccccc2CN1 unit_label=µM readout_value=38.3

Prompt: Quote Phenylethanolamine N-methyltransferase (Bos taurus) Ki for entry c1ccc2c(c1)CCNC2 [1,2,3,4-TETRAHYDROISOQUINOLINE] .
Completion: 9.67

Prompt: Quote Phenylethanolamine N-methyltransferase (Bos taurus) Ki for entry CC1Cc2ccccc2CN1 (racemic) .
Completion: 2.13

Prompt: Quote Phenylethanolamine N-methyltransferase (Bos taurus) Ki for entry c1ccc2c(c1)CNC2 .
Completion: 231

* * *

Molecular target: Adrenergic receptor alpha-2 (Rattus norvegicus, UniProt P22086+P19328+P22909)
Assay: In vitro for binding affinity against Alpha-2 adrenergic receptor by radioligand [3H]clonidine in rat
Assign labels as follows, please: MET for Ki below 4 µM; NOT MET for Ki equal to or exceeding 4 µM.

Use the examples below as a reference point.
compound=c1ccc2c(c1)CNCCS2 category="NOT MET"
compound=c1ccc2c(c1)CNCCN2 category=MET
compound=c1ccc2c(c1)CCCNC2 category="NOT MET"

# ---- query compound ----
Prompt: For this compound, is Ki lower than 4 µM? CC1Cc2ccccc2CN1 (racemic)
Completion: MET

* * *

Entries annotated with measured Ratio
Experiment: Selectivity ratio between Ki of alpha-2 adrenoceptor and Ki of PNMT
// response body must contain only the number

# count of solved cases: 4
molecule=c1ccc2c(c1)CNCCS2 assay_endpoint=Ratio readout_value=1.1
molecule=C[C@@H]1Cc2ccccc2CN1 assay_endpoint=Ratio readout_value=0.16
molecule="c1ccc2c(c1)CCNC2 [1,2,3,4-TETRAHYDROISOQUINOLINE]" assay_endpoint=Ratio readout_value=0.036
molecule=c1ccc2c(c1)CNC2 assay_endpoint=Ratio readout_value=0.0035

Prompt: Identify measured Ratio associated with c1ccc2c(c1)CCCCNC2
Completion: 0.73
